LD50 values by entry
# assay_notes: acute toxicity in rats
# Format: in vivo
# condition_info: rat, in vivo, oral

What does the data say about its LD50? Entry: C=CCCCCCCCCC(=O)N1CCN(c2cc(N3CCCC3)nc(N3CCCC3)n2)CC1 [Example 1]
> 1000 mg/kg

Param item: c1ccc(C(c2ccccc2)(c2ccccc2)N2CCN(c3cc(N4CCCC4)nc(N4CCCC4)n3)CC2)cc1 [Example 10]
> 1000 mg/kg

Next:
What does the data say about its LD50? Entry: OC(COc1ccc2ccccc2c1)CN1CCCN(c2cc(N3CCCC3)nc(N3CCCC3)n2)CC1 (stereo not drawn) [Example 27]
> 1000 mg/kg
